# test_details: GSK inMac assay, host cell toxicity readout (LD MAC)
# Format: cell-based, human
# run_parameters: human; footnote c; read-out: THP-1 Host Cell CC50
readout_name: CC50 (µM)
API: value field is a number in µM; no unit string.

Study these solved cases before continuing.
[
  {
    "compound": "COc1ccc(N2C(=O)c3[nH]nc(CC(C)C)c3C2c2cccc(C(F)(F)F)c2)cc1F (stereo not shown)",
    "CC50 (µM)": 25.1
  },
  {
    "compound": "CC(C)Cc1n[nH]c2c1C(c1ccccc1Br)N(c1ccc(F)cc1)C2=O (stereo not shown)",
    "CC50 (µM)": 15.8
  }
]

For the next question, use this compound.
Prompt: Please give the measured CC50 for this compound: COCn1nc(CC(C)C)c2c1C(=O)N(c1ccc(OC)cc1)C2c1ccc(F)cc1 (stereo not shown)
Response: 31.6

* * *

# test_details: GSK inMac assay, host cell toxicity readout (LD MAC)
# Format: cell-based, human
# run_parameters: human; footnote c; read-out: THP-1 Host Cell CC50
Recorded CC50 for the following compounds
API: value field is a number in µM; no unit string.

[
  {
    "compound": "COc1ccc(N2C(=O)c3[nH]nc(CC(C)C)c3C2c2ccc(Br)cc2)cc1 (centres unmarked) [CMLD010889]",
    "CC50, µM": 15.9
  },
  {
    "compound": "CC(C)Cc1n[nH]c2c1C(c1ccccc1Cl)N(c1ccc(N(C)C)cc1)C2=O (centres unmarked) [CMLD010920]",
    "CC50, µM": 7.3
  },
  {
    "compound": "COc1cc(F)ccc1C1c2c(CC(C)C)n[nH]c2C(=O)N1c1ccc(Br)cc1 (centres unmarked) [CMLD011494]",
    "CC50, µM": 4
  },
  {
    "compound": "COc1ccc(N2C(=O)c3[nH]nc(CC(C)C)c3C2c2ccc(F)cc2)c(OC)c1 (centres unmarked) [CMLD010992]",
    "CC50, µM": 31.6
  },
  {
    "compound": "COc1ccc(N2C(=O)c3[nH]nc(CC(C)C)c3C2c2ccncc2Cl)cc1 (centres unmarked) [CMLD011496]",
    "CC50, µM": 20
  },
  {
    "compound": "COc1ccc(N2C(=O)c3[nH]nc(CC(C)C)c3C2c2c(Cl)cccc2Cl)cn1 (centres unmarked) [CMLD011569]",
    "CC50, µM": 20
  },
  {
    "compound": "CC(C)Cc1n[nH]c2c1C(c1ccc(F)cc1)N(c1ccc3[nH]cnc3c1)C2=O (centres unmarked) [CMLD011557]",
    "CC50, µM": 20
  },
  {
    "compound": "COc1ccc(N2C(=O)c3[nH]nc(CC(C)C)c3[C@@H]2c2ccc(F)cc2C)cc1 [CMLD010949]",
    "CC50, µM": 39.8
  },
  {
    "compound": "COc1ccc(N2C(=O)c3[nH]nc(CC(C)C)c3C2c2ccc(F)cc2C)cc1F (centres unmarked) [CMLD011562]",
    "CC50, µM": 10.9
  },
  {
    "compound": "COc1ccc(N2C(=O)c3[nH]nc(CC(C)C)c3C2c2cccc(Cl)c2)cc1 (centres unmarked) [CMLD011099]",
    "CC50, µM": 39.8
  }
]

Prompt: Please give the measured CC50 for this compound: CC(C)Cc1n[nH]c2c1C(c1ccc(F)cc1)N(c1ccc(Br)cc1)C2=O (centres unmarked) [CMLD010897]
Response: 15.9

Prompt: Please give the measured CC50 for this compound: CC(C)Cc1n[nH]c2c1C(c1ccc(F)cc1)N(c1ccc(S(N)(=O)=O)cc1)C2=O (centres unmarked) [CMLD011495]
Response: 20

Prompt: Please give the measured CC50 for this compound: CC(C)Cc1n[nH]c2c1C(c1ccc(F)cc1)N(c1ccc3[nH]c(O)nc3c1)C2=O (centres unmarked) [CMLD011556]
Response: 20

Prompt: Please give the measured CC50 for this compound: COc1ccc(N2C(=O)c3[nH]nc(CC(C)C)c3C2c2ccccc2Br)cc1 (centres unmarked) [CMLD010894]
Response: 25.1
